# credit: the supplement of paper PMC6757056

B1: library; a variant is named by its letters at N, in order (parent)
chain: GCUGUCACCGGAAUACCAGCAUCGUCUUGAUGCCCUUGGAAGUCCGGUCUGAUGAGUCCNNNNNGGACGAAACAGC

- Variants of: B1
- protocolDescription: FACS-Seq fitted mean relative fluorescence mCherry/BFP without ligand (log10 relative fluorescence); higher = higher reporter protein expression
- measurementContext: HEK293T, ligand present: no
Can you tell me FACS-Seq fitted mean (log10) for the items I'm about to list?

Query string: Supply reported FACS-Seq fitted mean (log10) belonging to this variant: `GCUGUCACCGGAAUACCAGCAUCGUCUUGAUGCCCUUGGAAGUCCGGUCUGAUGAGUCCAACGGGGACGAAACAGC`
Result string: 0.852

Query string: Supply reported FACS-Seq fitted mean (log10) belonging to this variant: `GCUGUCACCGGAAUACCAGCAUCGUCUUGAUGCCCUUGGAAGUCCGGUCUGAUGAGUCCUAUGCGGACGAAACAGC`
Result string: 0.174

Query string: Supply reported FACS-Seq fitted mean (log10) belonging to this variant: `GCUGUCACCGGAAUACCAGCAUCGUCUUGAUGCCCUUGGAAGUCCGGUCUGAUGAGUCCCGAUUGGACGAAACAGC`
Result string: 0.31

Query string: Supply reported FACS-Seq fitted mean (log10) belonging to this variant: `GCUGUCACCGGAAUACCAGCAUCGUCUUGAUGCCCUUGGAAGUCCGGUCUGAUGAGUCCGAACCGGACGAAACAGC`
Result string: 0.828

Query string: Supply reported FACS-Seq fitted mean (log10) belonging to this variant: `GCUGUCACCGGAAUACCAGCAUCGUCUUGAUGCCCUUGGAAGUCCGGUCUGAUGAGUCCUACAUGGACGAAACAGC`
Result string: 0.684

Query string: Supply reported FACS-Seq fitted mean (log10) belonging to this variant: `GCUGUCACCGGAAUACCAGCAUCGUCUUGAUGCCCUUGGAAGUCCGGUCUGAUGAGUCCUCACAGGACGAAACAGC`
Result string: 0.565

Query string: Supply reported FACS-Seq fitted mean (log10) belonging to this variant: `GCUGUCACCGGAAUACCAGCAUCGUCUUGAUGCCCUUGGAAGUCCGGUCUGAUGAGUCCUCUGGGGACGAAACAGC`
Result string: 0.976

Query string: Supply reported FACS-Seq fitted mean (log10) belonging to this variant: `GCUGUCACCGGAAUACCAGCAUCGUCUUGAUGCCCUUGGAAGUCCGGUCUGAUGAGUCCAAACAGGACGAAACAGC`
Result string: -0.0142

Query string: Supply reported FACS-Seq fitted mean (log10) belonging to this variant: `GCUGUCACCGGAAUACCAGCAUCGUCUUGAUGCCCUUGGAAGUCCGGUCUGAUGAGUCCACUACGGACGAAACAGC`
Result string: 0.929

Query string: Supply reported FACS-Seq fitted mean (log10) belonging to this variant: `GCUGUCACCGGAAUACCAGCAUCGUCUUGAUGCCCUUGGAAGUCCGGUCUGAUGAGUCCUGCGUGGACGAAACAGC`
Result string: 0.83

Query string: Supply reported FACS-Seq fitted mean (log10) belonging to this variant: `GCUGUCACCGGAAUACCAGCAUCGUCUUGAUGCCCUUGGAAGUCCGGUCUGAUGAGUCCUUGCUGGACGAAACAGC`
Result string: 0.987

Query string: Supply reported FACS-Seq fitted mean (log10) belonging to this variant: `GCUGUCACCGGAAUACCAGCAUCGUCUUGAUGCCCUUGGAAGUCCGGUCUGAUGAGUCCAAAGUGGACGAAACAGC`
Result string: 0.903

Query string: Supply reported FACS-Seq fitted mean (log10) belonging to this variant: `GCUGUCACCGGAAUACCAGCAUCGUCUUGAUGCCCUUGGAAGUCCGGUCUGAUGAGUCCAUGUCGGACGAAACAGC`
Result string: 0.983

Query string: Supply reported FACS-Seq fitted mean (log10) belonging to this variant: `GCUGUCACCGGAAUACCAGCAUCGUCUUGAUGCCCUUGGAAGUCCGGUCUGAUGAGUCCUACGAGGACGAAACAGC`
Result string: 0.287

Query string: Supply reported FACS-Seq fitted mean (log10) belonging to this variant: `GCUGUCACCGGAAUACCAGCAUCGUCUUGAUGCCCUUGGAAGUCCGGUCUGAUGAGUCCAACUAGGACGAAACAGC`
Result string: 0.84

Query string: Supply reported FACS-Seq fitted mean (log10) belonging to this variant: `GCUGUCACCGGAAUACCAGCAUCGUCUUGAUGCCCUUGGAAGUCCGGUCUGAUGAGUCCACGAUGGACGAAACAGC`
Result string: 0.425

Query string: Supply reported FACS-Seq fitted mean (log10) belonging to this variant: `GCUGUCACCGGAAUACCAGCAUCGUCUUGAUGCCCUUGGAAGUCCGGUCUGAUGAGUCCACGGUGGACGAAACAGC`
Result string: 0.778

Query string: Supply reported FACS-Seq fitted mean (log10) belonging to this variant: `GCUGUCACCGGAAUACCAGCAUCGUCUUGAUGCCCUUGGAAGUCCGGUCUGAUGAGUCCAGCUAGGACGAAACAGC`
Result string: 0.662

Query string: Supply reported FACS-Seq fitted mean (log10) belonging to this variant: `GCUGUCACCGGAAUACCAGCAUCGUCUUGAUGCCCUUGGAAGUCCGGUCUGAUGAGUCCUGCUUGGACGAAACAGC`
Result string: 0.84

Query string: Supply reported FACS-Seq fitted mean (log10) belonging to this variant: `GCUGUCACCGGAAUACCAGCAUCGUCUUGAUGCCCUUGGAAGUCCGGUCUGAUGAGUCCAUGACGGACGAAACAGC`
Result string: 0.599

Query string: Supply reported FACS-Seq fitted mean (log10) belonging to this variant: `GCUGUCACCGGAAUACCAGCAUCGUCUUGAUGCCCUUGGAAGUCCGGUCUGAUGAGUCCACGCGGGACGAAACAGC`
Result string: 1

Query string: Supply reported FACS-Seq fitted mean (log10) belonging to this variant: `GCUGUCACCGGAAUACCAGCAUCGUCUUGAUGCCCUUGGAAGUCCGGUCUGAUGAGUCCCUCAUGGACGAAACAGC`
Result string: 1.03

Query string: Supply reported FACS-Seq fitted mean (log10) belonging to this variant: `GCUGUCACCGGAAUACCAGCAUCGUCUUGAUGCCCUUGGAAGUCCGGUCUGAUGAGUCCAGCUCGGACGAAACAGC`
Result string: 0.692

Query string: Supply reported FACS-Seq fitted mean (log10) belonging to this variant: `GCUGUCACCGGAAUACCAGCAUCGUCUUGAUGCCCUUGGAAGUCCGGUCUGAUGAGUCCUAAAAGGACGAAACAGC`
Result string: 0.164

Query string: Supply reported FACS-Seq fitted mean (log10) belonging to this variant: `GCUGUCACCGGAAUACCAGCAUCGUCUUGAUGCCCUUGGAAGUCCGGUCUGAUGAGUCCUGGAUGGACGAAACAGC`
Result string: 0.442

Query string: Supply reported FACS-Seq fitted mean (log10) belonging to this variant: `GCUGUCACCGGAAUACCAGCAUCGUCUUGAUGCCCUUGGAAGUCCGGUCUGAUGAGUCCCCUACGGACGAAACAGC`
Result string: 0.87

Query string: Supply reported FACS-Seq fitted mean (log10) belonging to this variant: `GCUGUCACCGGAAUACCAGCAUCGUCUUGAUGCCCUUGGAAGUCCGGUCUGAUGAGUCCAUGAAGGACGAAACAGC`
Result string: 0.317

Query string: Supply reported FACS-Seq fitted mean (log10) belonging to this variant: `GCUGUCACCGGAAUACCAGCAUCGUCUUGAUGCCCUUGGAAGUCCGGUCUGAUGAGUCCAAAGAGGACGAAACAGC`
Result string: -0.192

Query string: Supply reported FACS-Seq fitted mean (log10) belonging to this variant: `GCUGUCACCGGAAUACCAGCAUCGUCUUGAUGCCCUUGGAAGUCCGGUCUGAUGAGUCCCGACAGGACGAAACAGC`
Result string: 0.409

Query string: Supply reported FACS-Seq fitted mean (log10) belonging to this variant: `GCUGUCACCGGAAUACCAGCAUCGUCUUGAUGCCCUUGGAAGUCCGGUCUGAUGAGUCCCACAUGGACGAAACAGC`
Result string: 0.589

Query string: Supply reported FACS-Seq fitted mean (log10) belonging to this variant: `GCUGUCACCGGAAUACCAGCAUCGUCUUGAUGCCCUUGGAAGUCCGGUCUGAUGAGUCCCCUUUGGACGAAACAGC`
Result string: 0.664

Query string: Supply reported FACS-Seq fitted mean (log10) belonging to this variant: `GCUGUCACCGGAAUACCAGCAUCGUCUUGAUGCCCUUGGAAGUCCGGUCUGAUGAGUCCCUCUAGGACGAAACAGC`
Result string: 0.786

Query string: Supply reported FACS-Seq fitted mean (log10) belonging to this variant: `GCUGUCACCGGAAUACCAGCAUCGUCUUGAUGCCCUUGGAAGUCCGGUCUGAUGAGUCCAACAAGGACGAAACAGC`
Result string: 0.377

Query string: Supply reported FACS-Seq fitted mean (log10) belonging to this variant: `GCUGUCACCGGAAUACCAGCAUCGUCUUGAUGCCCUUGGAAGUCCGGUCUGAUGAGUCCUAUCCGGACGAAACAGC`
Result string: 0.705

Query string: Supply reported FACS-Seq fitted mean (log10) belonging to this variant: `GCUGUCACCGGAAUACCAGCAUCGUCUUGAUGCCCUUGGAAGUCCGGUCUGAUGAGUCCCAACCGGACGAAACAGC`
Result string: 1.06

Query string: Supply reported FACS-Seq fitted mean (log10) belonging to this variant: `GCUGUCACCGGAAUACCAGCAUCGUCUUGAUGCCCUUGGAAGUCCGGUCUGAUGAGUCCUACUGGGACGAAACAGC`
Result string: 0.382

Query string: Supply reported FACS-Seq fitted mean (log10) belonging to this variant: `GCUGUCACCGGAAUACCAGCAUCGUCUUGAUGCCCUUGGAAGUCCGGUCUGAUGAGUCCAACGCGGACGAAACAGC`
Result string: 0.985

Query string: Supply reported FACS-Seq fitted mean (log10) belonging to this variant: `GCUGUCACCGGAAUACCAGCAUCGUCUUGAUGCCCUUGGAAGUCCGGUCUGAUGAGUCCACUAGGGACGAAACAGC`
Result string: 1.14

Query string: Supply reported FACS-Seq fitted mean (log10) belonging to this variant: `GCUGUCACCGGAAUACCAGCAUCGUCUUGAUGCCCUUGGAAGUCCGGUCUGAUGAGUCCAUCGCGGACGAAACAGC`
Result string: 0.925

Query string: Supply reported FACS-Seq fitted mean (log10) belonging to this variant: `GCUGUCACCGGAAUACCAGCAUCGUCUUGAUGCCCUUGGAAGUCCGGUCUGAUGAGUCCCCGCUGGACGAAACAGC`
Result string: 0.291

Query string: Supply reported FACS-Seq fitted mean (log10) belonging to this variant: `GCUGUCACCGGAAUACCAGCAUCGUCUUGAUGCCCUUGGAAGUCCGGUCUGAUGAGUCCAAGAAGGACGAAACAGC`
Result string: 0.0676

Query string: Supply reported FACS-Seq fitted mean (log10) belonging to this variant: `GCUGUCACCGGAAUACCAGCAUCGUCUUGAUGCCCUUGGAAGUCCGGUCUGAUGAGUCCUAGCUGGACGAAACAGC`
Result string: 1.23

Query string: Supply reported FACS-Seq fitted mean (log10) belonging to this variant: `GCUGUCACCGGAAUACCAGCAUCGUCUUGAUGCCCUUGGAAGUCCGGUCUGAUGAGUCCGUUUGGGACGAAACAGC`
Result string: 0.972

Query string: Supply reported FACS-Seq fitted mean (log10) belonging to this variant: `GCUGUCACCGGAAUACCAGCAUCGUCUUGAUGCCCUUGGAAGUCCGGUCUGAUGAGUCCCCUUAGGACGAAACAGC`
Result string: 0.654

Query string: Supply reported FACS-Seq fitted mean (log10) belonging to this variant: `GCUGUCACCGGAAUACCAGCAUCGUCUUGAUGCCCUUGGAAGUCCGGUCUGAUGAGUCCCCAAUGGACGAAACAGC`
Result string: 0.688

Query string: Supply reported FACS-Seq fitted mean (log10) belonging to this variant: `GCUGUCACCGGAAUACCAGCAUCGUCUUGAUGCCCUUGGAAGUCCGGUCUGAUGAGUCCCGCGUGGACGAAACAGC`
Result string: 0.348
